# system.name: human orexin-2 receptor (Homo sapiens (Human))
# Sequence (O43614 whole entry): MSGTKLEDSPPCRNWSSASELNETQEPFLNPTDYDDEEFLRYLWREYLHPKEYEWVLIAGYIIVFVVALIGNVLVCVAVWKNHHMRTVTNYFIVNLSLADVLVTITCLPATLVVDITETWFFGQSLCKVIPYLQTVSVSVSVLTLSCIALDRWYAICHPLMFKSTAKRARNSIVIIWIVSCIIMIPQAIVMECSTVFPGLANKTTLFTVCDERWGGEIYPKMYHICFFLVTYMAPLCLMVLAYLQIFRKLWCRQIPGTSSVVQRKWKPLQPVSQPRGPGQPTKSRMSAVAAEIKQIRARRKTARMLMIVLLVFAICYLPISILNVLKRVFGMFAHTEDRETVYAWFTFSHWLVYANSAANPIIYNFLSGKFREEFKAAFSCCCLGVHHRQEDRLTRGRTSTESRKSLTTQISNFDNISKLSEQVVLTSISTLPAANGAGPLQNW
# protocol.details: FLIPR Ca2+ Flux Assay, CHO cells expressing orexin-2 receptor
# test.parameters: 70 pM Ala-6,12 orexin-A agonist, read-out: hOX2R FLIPR IC50
# IC50 per record follows
Provide only the numeric value, understood in nM.

## Input Query: IC50; subject: `C[C@@H]1CC[C@@H](Oc2nccc3c2COC3=O)CN1C(=O)c1ccccc1-n1ncnn1`
## Output 30

***
## Input Query: IC50; subject: `Cc1noc(-c2cccc(F)c2C(=O)N2C[C@H](Oc3nccc4c3C(=O)OC4(C)C)CC[C@H]2C)n1`
## Output 102

## Input Query: IC50; subject: `C[C@@H]1CC[C@@H](Oc2nccc3c2C(=O)OC3(C)C)CN1C(=O)c1ccsc1-n1nccn1`
## Output 39

## Input Query: IC50; subject: `C[C@@H]1OC(=O)c2c1ccnc2N[C@@H]1CC[C@@H](C)N(C(=O)c2ccccc2-n2nccn2)C1`
## Output 28
